Target Entity: T1, CD79b endogenously expressed on the cell surface (malignant B cell lines, normal B cells in PBMC, CLL … (human, UniProt P40259 29-229))
T1 construct: whole, on cells; On cells CD79b stands in the B-cell receptor complex with CD79a and surface Ig; also called cell surface CD79b; endogenous CD79b
T1 sequence (looked up): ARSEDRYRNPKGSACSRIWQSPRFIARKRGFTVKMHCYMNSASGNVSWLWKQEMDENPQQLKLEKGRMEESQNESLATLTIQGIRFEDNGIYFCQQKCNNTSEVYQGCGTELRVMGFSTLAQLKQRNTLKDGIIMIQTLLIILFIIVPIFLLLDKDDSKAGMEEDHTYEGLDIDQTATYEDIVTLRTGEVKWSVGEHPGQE
Test Protocol: flow cytometry on PBMC of CLL Donor 0255 (B lymphocytes); PE goat anti-human IgG Fc; MFI PE
Overview of reported EC50 (read off the curve) across a group of binders:

# Binder, EC50 (read off the curve)
records = [
    ("polatuzumab (antibody, V domains shown) VH: EVQLVESGGGLVQPGGSLRLSCAASGYTFSSYWIEWVRQAPGKGLEWIGEILPGGGDTNYNEIFKGRATFSADTSKNTAYLQMNSLRAEDTAVYYCTRRVPIRLDYWGQGTLVTVSS VL: DIQLTQSPSSLSASVGDRVTITCKASQSVDYEGDSFLNWYQQKPGKAPKLLIYAASNLESGVPSRFSGSGSGTDFTLTISSLQPEDFATYYCQQSNEDPLTFGQGTKVEIKR", "~0.9 nM"),
    ("ch57B9 (antibody, human IgG1, kappa, V domains shown, Rabbit/human chimeric IgG1 kappa; also called chimeric 57B9) VH: QSVRETGGGLVQPGGSLTLSCEASEFTINIDYWISWVRQAPGKGLEWIGIIDPGDGTTYFAIWVSGRFTITRNTNLNTVDLKMTSLTEADTATYFCAREVSASAYQYDLWGPGTLVTVSS VL: ALVMTQTPSSVSADVGGTVSINCQASEDIESYLAWYQQKPGQPPKLLIYFTSNLASGVPSRFKGSGSGTEYTLTISGVQPDDAATYYCQQGYRNSDVHNPFGGGTEVVVKR", "~0.9 nM"),
    ("ch23D8 (antibody, human IgG1, kappa, V domains shown, Rabbit/human chimeric IgG1 kappa; also called chimeric 23D8) VH: QSLEESGGGLVTPGGTLTLTCTVSGLSLSSNAINWVRQAPGKGLEWIGMIYSGGRIEYASWAKGRFTISKTSTTVDLKITSPTTEDTATYFCAKGMSPSAHSSDIWGPGTLVTVSA VL: AYDMTQTPASVEVAVGGTVTIKCQASQSISDNLSWYQQKPGQPPKLLIYDASDLASGVPSRFSGSGSGTEFTLTISDLEPADAATYYCQQDWISSNVDNTFGGGTEVVVKR", "~0.9 nM"),
    ("ch44G2 (antibody, human IgG1, kappa, V domains shown, Rabbit/human chimeric IgG1 kappa; also called chimeric 44G2) VH: QSVRETGGGLVQPGGSLKLSCKASGFTINIDYWISWVRQAPGKGLEWIGIIDPGDGTTYFAIWVSGRFTISFDNTQNTVDLQMNSLTAADTATYFCVREFSASAYQYDLWGPGTLVTVSS VL: DLVMTQTPSSVSAAVGGTVSINCRASEDIENYLAWYQQKPGQPPKLLIYRASTLSSGVSSRFSGSGSGTEFTLTISGVQPDDAATYYCQQGYRNSNVDNPFGGGTEMVVKR", "~0.8 nM"),
]

Data credit: patent US20260209346A1
